ASSAY_PROTOCOL: Dynamic solubility experiment at 37°C (water, SGF, FaSSIF, FeSSIF)
CONDITION_SUMMARY: FeSSIF, 4 hours, solid feed 10 mg/mL, 240 min
Where a name gives a salt, the structure may show the parent alone.
PROPERTY_MEASURED: S: solubility (µg/mL)

>>> print(df.to_string())
                                   compound  test_value
0  Cc1cc(OCCN2C[C@H]3COC[C@H]3C2)ccc1-c1ccc(CC(=O)NCc2ccccc2)nc1 [Crystal form B of oxalate salt]        3660
1  Cc1cc(OCCN2C[C@H]3COC[C@H]3C2)ccc1-c1ccc(CC(=O)NCc2ccccc2)nc1 [Crystal form A of benzenesulfonate salt]        2890
2  Cc1cc(OCCN2C[C@H]3COC[C@H]3C2)ccc1-c1ccc(CC(=O)NCc2ccccc2)nc1 [Crystal form A of phosphate salt]        4120
3  Cc1cc(OCCN2C[C@H]3COC[C@H]3C2)ccc1-c1ccc(CC(=O)NCc2ccccc2)nc1 [Free form crystal form A]        3740
